Data credit: patent US20250314655A1

- TARGET DESC: TRBC1 peptide (biotinylated) (human)
- PROTOCOL TEXT: TRF assay, scFv on biotin-peptide/neutravidin plate
OBSERVATION TYPE: TRBC1 Binding (TRF units)
Answers are plain numbers, in TRF units.

Example cases with answers are listed next.
CP_03_D05 (scFv, not shown: small tags and cut ends) scFv: QVQLVESGAEVKKPGASVKVSCKASGYTFTGYYMHWVRQAPGQGLEWMGRINPNSGGTNYAQKFQGRVTMTRDTSISTAYMELSRLRSDDTAVYYCASPRGRGSAFDIWGQGTLVTVSSGGGGSGGGGSGGGASSYELTQPPSVSVSPGQTATISCSGDQLGGKYGHWYQKKPGQSPVLVLYQDRKRPAGIPERFSGSSSGNTITLTISGTQAVDEADYYCQAWDTNLGGVFGGGTKVTVLGQPAA
762
CP_03_C12 (scFv, not shown: small tags and cut ends) scFv: EVQLVQSGAEVKKPGASVKVSCKASGYTFTGYYMHWVRQAPGQGLEWMGWINPNSGGTNYAQKFQGRVTMTRDTSISTAYMELSSLRSEDTAVYYCARDTGPIDYWGQGTMVTVSSGGGGSGGGGSGGGASDIVMTQTPLSLSVTPGQPASISCKSSQSLLHSDGKTYLYWYLQKPGQPPQLLVYEVSNRFSGVPDKFSGSGSGTDFTLKISRVEAEDVGVYYCMQGIQLPPTFGGGTKVDIKRTAAA
789

Consider the additional binder presented here.
I would be grateful if you could share the reported TRBC1 Binding for CP_03_D09 (scFv, not shown: small tags and cut ends) scFv: EVQLVQSGAEVKKPGSSVKVSCEASGYTFTSYAISWVRQAPGQGLEWMGWMNPNSGNTGYAQKFQGRVTMTRNTSISTAYMELSSLRSEDTAVYYCARVSSYYGMDVWGQGTLVTVSSGGGGSGGGGSGGGASNFMLTQPLSVSESPGKTVTISCTRSSGSIASNYVQWYQQRPGSAPTTVIYEDNQRPSGVPDRFSGSIDSSSNSASLTISGLKTEDEADYYCQSYNSSNHWVFGGGTKVTVLGQPAA .
544
